Ref: PubChem BioAssay

target: Short transient receptor potential channel 4 (Mus musculus); assay: blockers of DAMGO-evoked TRPC4 calcium flux – cell-based, Fluo4, HEK293 TRPC4beta/mu-opioid, confirmation (AID 2636); details: at 10 µM
Calls of active or inactive are those of the source.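 Rule for the calls: active = calcium signal cut by more than 3 SD below the full-agonist control yet still positive, in both repeats and the earlier primary screen; inactive = the rest.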
Choose one outcome from this list and give only that: 1 (yes) = active, 0 (no) = inactive

Here are 5 compounds together with their reported answers.
{"Compound": "Cc1cc(OCC(=O)Nc2ccc(N3CCN(C)CC3)cc2)ccc1Cl", "Category": "1 (yes)"}
{"Compound": "CCNc1nc(NC(C)(C)C)nc(N2CCCC2)n1", "Category": "1 (yes)"}
{"Compound": "Cc1cc(OCC(=O)NNC(=S)NC(=O)c2ccc(Br)o2)ccc1Cl", "Category": "0 (no)"}
{"Compound": "CC(=O)Nc1nc(-c2ccc3c(c2)CCN3C(=O)C2CC2)c(C)s1", "Category": "0 (no)"}
{"Compound": "O=C(CCCCn1c(=O)[nH]c2ccccc2c1=O)NC1CCN(Cc2ccccc2)CC1", "Category": "0 (no)"}

Request: Would you mind telling me which call this test gave CN(C)c1ccc(-c2sc(Nc3ccccc3)n[n+]2-c2ccc(F)cc2)cc1 ?
Result: 0 (no)

Request: For this compound, state the assay outcome: CCCn1c(=O)c(C(=O)NCC2CCCO2)c(O)c2ccccc21 (stereo not drawn)
Result: 0 (no)

Request: Assay outcome for CN1CCN(Cc2nc3ccccc3n2C)CC1CCO (stereo not drawn) : what was it?
Result: 0 (no)

Request: Recorded test outcome, item CC(C)Oc1cccc(C(=O)NC(=S)Nc2ccc(N3CCN(C)CC3)cc2)c1
Result: 0 (no)

Request: Which outcome was assigned to COc1ccc(-c2n[nH]c(C)c2-c2ccccc2OC)c(O)c1 in this test?
Result: 0 (no)

Request: Write down the call the test reported for this compound. Item: Cc1cc([N+](=O)[O-])ccc1NCc1ccccc1
Result: 1 (yes)

###

target: Short transient receptor potential channel 4 (Mus musculus); test: blockers of DAMGO-evoked TRPC4 calcium flux – cell-based, second round, Fluo4, HEK293 TRPC4beta/mu-opioid, 1 µM, confirmation (AID 2637); conditions: at 1 µM
Calls of active or inactive are those of the source.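 The calls were made as follows: active = calcium signal ratio cut to more than 3 SD under the fully stimulated control mean yet still positive, in both repeats and the primary screen; inactive = the rest.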
Just give me one of these, please: 1 (yes) = active, 0 (no) = inactive

Look over these answered cases.
{"Compound": "COc1ccc(Br)cc1CN1CCC(N2CCCC2)CC1", "Category": "0 (no)"}
{"Compound": "O=C(Nc1cccc(Cl)c1)N1CCN2C(=O)c3ccccc3C12c1ccccc1 (stereo unspecified)", "Category": "0 (no)"}
{"Compound": "CC(C)(C)C(=O)NCCCc1nc2ccccc2n1CCCOc1ccc(Cl)cc1", "Category": "0 (no)"}
{"Compound": "Cn1c(=O)c2c(nc(CN3CCc4ccccc4C3)n2Cc2cccc(Cl)c2)n(C)c1=O", "Category": "0 (no)"}
{"Compound": "Cn1c(SCCOc2ccccc2F)nc2ccccc2c1=O", "Category": "0 (no)"}
{"Compound": "CCCCCC[N+](C)(C)CC/C=C1/c2ccccc2Sc2ccc(Cl)cc21", "Category": "1 (yes)"}
{"Compound": "Cc1nc(N2CCN(c3ccccn3)CC2)c2c(C)c(C(=O)N3CCN(c4ccccc4F)CC3)sc2n1", "Category": "0 (no)"}
{"Compound": "COc1ccc(CSCCN)cc1Cl", "Category": "0 (no)"}

Request: # fetch the recorded call for COC(=O)/C=C1\SC(=NC(=O)c2cccc(Cl)c2)NC1=O here
Result: 0 (no)

Request: Hello, I am checking results. What call was entered for O=C(NCC(c1ccco1)N1CCc2ccccc2C1)c1ccc(F)cc1 (stereo unspecified) ?
Result: 0 (no)

Request: Given CC(=O)c1nn(-c2cccc(Br)c2)cc1C(=O)c1cccc2ccccc12 , state the outcome it received in this test.
Result: 0 (no)
